For each record, write down the corresponding Ki.
- SYSTEM: T1, human melanocortin receptor subtype 1 (hMC1-R) (human, UniProt Q01726 1-317)
- T1 construct: whole, on cells; membranes of CHO-K1 cells
- T1 sequence (Q01726 whole entry): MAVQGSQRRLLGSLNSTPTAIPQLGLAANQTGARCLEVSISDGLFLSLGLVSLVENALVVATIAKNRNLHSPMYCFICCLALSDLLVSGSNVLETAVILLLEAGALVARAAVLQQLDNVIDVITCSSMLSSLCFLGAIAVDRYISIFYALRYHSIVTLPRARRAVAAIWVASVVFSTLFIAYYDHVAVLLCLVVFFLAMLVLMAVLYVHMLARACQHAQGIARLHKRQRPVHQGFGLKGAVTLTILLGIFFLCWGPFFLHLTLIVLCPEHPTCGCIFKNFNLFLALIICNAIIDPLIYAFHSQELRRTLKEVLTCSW
- TEST METHOD NOTES: [125I]-NDP-α-MSH competition, membranes
- Procedure: Cellular membranes used for the in vitro receptor binding assays were obtained from transgenic CHO-K1 cells stably expressing hMC-R receptor subtypes 1, 3, 4 or 5. […] Competitive inhibition of [¹²⁵I](Tyr²)-(Nle⁴-D-Phe⁷)α-MSH ([¹²⁵I]-NDP-α-MSH, Amersham Biosciences®) binding was carried out in polypropylene 96 well plates. […] Binding data were analyzed by computer-assisted non-linear regression analysis (XL fit; IDBS).
Bridge positions count the residues as written; N and C are the ends. Square brackets hold non-standard residues; d marks the D form. Ends that are not written are not given here. d2Nal = N[C@H](Cc1ccc2ccccc2c1)C(=O)O; Bta = N[C@@H](Cc1csc2ccccc12)C(=O)O; Aic = NC1(C(=O)O)Cc2ccccc2C1; Nle = CCCC[C@H](N)C(=O)O; Apc = not defined here; βAla = NCCC(=O)O
Answers are plain numbers, in nM.

1) D[Apc][d2Nal]RWK-NH2 (lactam 1-6; reading uncertain; also: hydantoin ring: N-terminal N of Asp1 and backbone N of residue 2 bridged by one C(O), bridge at N via C(O), other end not in the chain, printed as c[Hydantoin(C(O)-(Asp-Apc))-D-2-Nal-Arg-Trp-Lys]-NH2) [c[Hydantoin(C(O)-(Asp-Apc))-D-2-Nal-Arg-Trp-Lys]-NH2] :: 1280

Your task in this section: give Ki for each listed record.
1. Ac-CEH[d2Nal]RWACPPKD-NH2 (disulfide 1-8; SMILES CC(=O)N[C@H]1CSSC[C@@H](C(=O)N2CCC[C@H]2C(=O)N2CCC[C@H]2C(=O)N[C@@H](CCCCN)C(=O)N[C@@H](CC(=O)O)C(N)=O)NC(=O)[C@H](C)NC(=O)[C@H](Cc2c[nH]c3ccccc23)NC(=O)[C@H](CCCNC(=N)N)NC(=O)[C@@H](Cc2ccc3ccccc3c2)NC(=O)[C@H](Cc2c[nH]cn2)NC(=O)[C@H](CCC(=O)O)NC1=O) [Ac-c(Cys-Glu-His-D-2-Nal-Arg-Trp-Ala-Cys)-Pro-Pro-Lys-Asp-NH2]
2. Ac-CEH[d2Nal]R[Bta]ACPPKD[βAla]GRRRRRQRRR-NH2 (disulfide 1-8) [Ac-c(Cys-Glu-His-D-2-Nal-Arg-Bal-Ala-Cys)-Pro-Pro-Lys-Asp-β-[…]NH2]
3. GGCEH[dF]RWC-NH2 (disulfide 3-9; also: hydantoin ring from C(O) with Gly1-Gly2) [Hydantoin(C(O)-(Gly-Gly))-c(Cys-Glu-His-D-Phe-Arg-Trp-Cys)-NH2]

Solution:
1. 49.9
2. 12.8
3. 11.9

Your task in this section: give Ki for each listed record.
1. D[Aic][d2Nal]RWK-NH2 (lactam 1-6; also: hydantoin ring: N-terminal N of Asp1 and backbone N of residue 2 bridged by one C(O), bridge at N via C(O), other end not in the chain) [c[Hydantoin(C(O)-(Asp-Aic))-D-2-Nal-Arg-Trp-Lys]-NH2]
2. [Nle]GCEH[dF]RWC-NH2 (disulfide 3-9; also: N-terminal hydantoin: C(O) bridges X1 N-terminal N and G2 backbone N, bridge at N via C(O), other end not in the chain) [Hydantoin(C(O)-(Nle-Gly))-c(Cys-Glu-His-D-Phe-Arg-Trp-Cys)-NH2]

Solution:
9030
14.3

Sourced from patent US20120135923A1
